B1: library; numbered along this chain (parent)
chain: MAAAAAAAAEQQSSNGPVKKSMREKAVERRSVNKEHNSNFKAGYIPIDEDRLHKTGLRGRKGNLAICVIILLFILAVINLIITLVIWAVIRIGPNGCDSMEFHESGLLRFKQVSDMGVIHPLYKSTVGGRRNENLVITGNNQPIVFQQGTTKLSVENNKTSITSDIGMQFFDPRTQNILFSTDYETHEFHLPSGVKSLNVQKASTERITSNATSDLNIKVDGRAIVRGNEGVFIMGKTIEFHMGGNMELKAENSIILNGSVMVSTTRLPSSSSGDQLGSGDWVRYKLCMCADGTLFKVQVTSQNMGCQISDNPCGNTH

Variants of: B1
experiment_notes: SGCB cell-surface expression functional score (HA stain, bin4 vs bin1, normalised to synonymous) (log10 ratio); higher = more cell-surface SGCB (functional)
Okay, here is how we bin by SGCB cell-surface expression functional score (log10): Low: < -1; Mid: ≥ -1 and < 0.2; High: ≥ 0.2

Asked: Note: place this variant into its band. Item: I166D
Given back: Low

Asked: Note: place this variant into its band. Item: I255N
Given back: Low

Asked: Note: place this variant into its band. Item: F40S
Given back: Mid

Asked: Note: place this variant into its band. Item: K54L
Given back: High

Asked: Note: place this variant into its band. Item: S125V
Given back: Mid

Asked: Note: place this variant into its band. Item: S272A
Given back: High

Asked: Note: place this variant into its band. Item: R109T
Given back: High

Asked: Note: place this variant into its band. Item: A203D
Given back: Low

Asked: Note: place this variant into its band. Item: Q176Y
Given back: Mid

Asked: Note: place this variant into its band. Item: F180H
Given back: Low

Asked: Note: place this variant into its band. Item: F241S
Given back: Low

Asked: Note: place this variant into its band. Item: R29A
Given back: High

Cited source: the supplement of paper PMC10266784
